- target.of.assay: T1, TBD-22 (HC D109A)
- T1 construct: Fab; also called HC D109A mutant
- experimental.details: competition ELISA, peptide vs Fab binding to captured biotin-TROP2
Where no end group is shown, it is not given here.
Quick rule for you: IC50 under 100 nM gets 1.0, anything else gets 0.0.

binder="IDFCAMYQWPICDT (cysteine pairing not given here; also: biotinylated (site not given here)) [Peptide-1]" class_assignment=1.0
binder="LDFCKIYDWPICHL (cysteine pairing not given here; also: biotinylated (site not given here)) [Peptide-14]" class_assignment=0.0
binder="IDFCAVYKWPVCQV (cysteine pairing not given here; also: biotinylated (site not given here)) [Peptide-2]" class_assignment=0.0
binder="EDFCKLYNWPICYQ (cysteine pairing not given here; also: biotinylated, site not given here) [Peptide-7]" class_assignment=0.0
binder="IDFCAIYQWPVCRS (cysteine pairing not given here; also: biotinylated (site not given here)) [Peptide-10]" class_assignment=1.0
binder="IDFCMLYNWPICAG (cysteine pairing not given here; also: biotinylated, site not given here) [Peptide-3]" class_assignment=1.0
binder="VDFCKIYAWPICGS (cysteine pairing not given here; also: biotinylated, site not given here) [Peptide-4]" class_assignment=0.0
